experiment summary: Stability in monkey whole blood >30 mins
Assay type: ADME, tissue-based, Macaca mulatta
conditions used: rhesus monkey, read-out: Stability
value kind: remaining at 0.5 h (%)

[[record]]
query_smiles = "CC(=O)N(Cc1ccccc1O[11CH3])c1cnccc1Oc1ccccc1"
value_kind = "remaining at 0.5 h"
measured = 95.8

[[record]]
query_smiles = "CC(=O)N(Cc1ccccc1C(=O)O[11CH3])c1ccccc1Oc1ccccc1"
value_kind = "remaining at 0.5 h"
measured = 96.5


###

study system: GABA A receptor alpha-5/beta-3/gamma-2 (Rattus norvegicus, UniProt P18508+P19969+P63079)
Sequence (P18508 whole entry): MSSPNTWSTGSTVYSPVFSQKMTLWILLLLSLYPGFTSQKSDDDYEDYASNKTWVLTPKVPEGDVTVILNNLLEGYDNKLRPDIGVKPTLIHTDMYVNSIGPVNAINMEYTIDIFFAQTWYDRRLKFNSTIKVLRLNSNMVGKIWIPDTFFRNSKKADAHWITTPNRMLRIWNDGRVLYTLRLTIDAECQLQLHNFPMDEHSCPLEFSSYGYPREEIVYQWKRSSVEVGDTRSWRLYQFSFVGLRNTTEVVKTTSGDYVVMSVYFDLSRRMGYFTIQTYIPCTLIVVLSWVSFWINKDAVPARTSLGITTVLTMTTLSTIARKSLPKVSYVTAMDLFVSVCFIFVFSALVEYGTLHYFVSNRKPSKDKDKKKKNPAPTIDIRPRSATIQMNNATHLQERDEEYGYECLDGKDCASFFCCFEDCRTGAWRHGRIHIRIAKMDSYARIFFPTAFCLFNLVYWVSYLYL
Sequence (P19969 whole entry): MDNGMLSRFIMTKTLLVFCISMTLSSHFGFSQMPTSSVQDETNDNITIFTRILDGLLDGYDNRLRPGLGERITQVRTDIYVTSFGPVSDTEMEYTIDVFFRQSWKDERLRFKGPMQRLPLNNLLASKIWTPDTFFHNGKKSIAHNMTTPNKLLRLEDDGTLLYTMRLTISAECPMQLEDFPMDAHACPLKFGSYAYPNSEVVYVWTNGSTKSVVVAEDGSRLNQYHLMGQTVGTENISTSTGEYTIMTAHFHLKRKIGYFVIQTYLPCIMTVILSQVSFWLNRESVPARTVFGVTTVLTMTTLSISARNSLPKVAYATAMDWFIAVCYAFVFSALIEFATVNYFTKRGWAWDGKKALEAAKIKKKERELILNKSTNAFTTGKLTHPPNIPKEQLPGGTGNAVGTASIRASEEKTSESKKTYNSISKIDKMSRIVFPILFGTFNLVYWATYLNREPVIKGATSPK
Sequence (P63079 whole entry): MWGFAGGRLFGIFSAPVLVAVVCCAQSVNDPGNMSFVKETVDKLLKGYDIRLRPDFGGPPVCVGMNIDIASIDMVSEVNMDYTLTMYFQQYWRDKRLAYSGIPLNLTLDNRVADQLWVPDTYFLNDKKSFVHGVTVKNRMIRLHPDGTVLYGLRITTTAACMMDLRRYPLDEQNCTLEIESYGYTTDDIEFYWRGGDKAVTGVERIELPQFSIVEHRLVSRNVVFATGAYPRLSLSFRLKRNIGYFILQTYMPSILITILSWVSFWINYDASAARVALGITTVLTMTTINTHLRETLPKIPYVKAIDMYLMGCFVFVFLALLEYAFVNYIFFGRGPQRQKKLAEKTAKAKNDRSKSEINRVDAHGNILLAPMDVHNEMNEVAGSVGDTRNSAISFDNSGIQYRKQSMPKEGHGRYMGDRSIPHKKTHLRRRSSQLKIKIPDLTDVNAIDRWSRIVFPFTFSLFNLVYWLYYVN
experiment summary: Binding affinity to GABA alpha-5-beta-2-gamma-2 receptor
value kind: Ki

[[record]]
query_smiles = "CC(=O)N(Cc1ccccc1O[11CH3])c1cnccc1Oc1ccccc1"
measured = "> 10 µM"

